Recorded values, source ChEMBL document CHEMBL1201862.

assayedTarget: Induced myeloid leukemia cell differentiation protein Mcl-1 (Homo sapiens, UniProt Q07820)
Sequence (Q07820 whole entry): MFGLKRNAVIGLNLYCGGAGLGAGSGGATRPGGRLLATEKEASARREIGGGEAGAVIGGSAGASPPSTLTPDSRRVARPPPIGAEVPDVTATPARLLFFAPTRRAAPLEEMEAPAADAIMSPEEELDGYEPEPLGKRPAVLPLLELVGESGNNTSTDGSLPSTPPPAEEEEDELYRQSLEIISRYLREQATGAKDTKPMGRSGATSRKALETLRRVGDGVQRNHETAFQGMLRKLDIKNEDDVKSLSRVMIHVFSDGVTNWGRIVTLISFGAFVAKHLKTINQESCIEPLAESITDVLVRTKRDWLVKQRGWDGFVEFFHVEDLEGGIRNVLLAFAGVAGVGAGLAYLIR
Assay type: functional
The source made the active and inactive calls.
recordedEndpoint: IC50

Guide cases for IC50, answers given:
compound | recordedEndpoint | result
COc1ccc(-n2nc3cc(C)c(N)c(Br)c3n2)cc1 | IC50 | 2530 nM (active)
CC1(c2ccccc2)CC(C)(C)N2C(=O)/C(=C3\SC(=S)NC3=O)c3cccc1c32 (stereo unspecified) | IC50 | 1180 nM (active)
COc1cccc(-n2c(SCc3cc(=O)oc4cc(O)c(O)cc34)nc3ccccc3c2=O)c1 | IC50 | 2720 nM (active)
Fc1cc(F)c2nc(Nc3nc4cc5c(cc4s3)OCO5)sc2c1 | IC50 | 1120 nM (active)
CCCCN(CC)CC/N=c1/c(N2CCN(C(=O)OCC)CC2)c(O)c1=O | IC50 | 433 nM (active)

*Q* # IC50 lookup, item COc1ccc(CC(=O)n2[nH]c(=O)ccc2=O)cc1OC
*A* 18200 nM (active)

====

experimentNotes: Trypanosoma cruzi growth suppression in host cells – NIH3T3 host cells, beta-gal luminescence, confirmation (AID 2044);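 further: intracellular parasites grown in NIH/3T3 mouse fibroblasts as host cells; luminescent beta-galactosidase reporter signal from transgenic T. cruzi replicating inside host cells; inhibitors lower the luminescence signal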
Type: functional, cell-based
Active and inactive are the calls of the source.
For each of the molecules below, state its EC50.

Guide cases for EC50, answers given:
molecule | EC50
CCCCCNc1nc(-c2ccccc2)nc(-n2ccnc2)n1 | 1.55 µM (active)
N#Cc1cc2ccccc2nc1SCC(=O)Nc1ccc(S(=O)(=O)N2CCCC2)cc1 | 2.83 µM (active)
CCN(CC)CCN(C(=O)c1ccc2c(c1)OCCO2)c1nc2ccc(C)cc2s1 | 0.457 µM (active)
Cc1ccc(-c2nnc(Nc3ccc(CC(N)=O)cc3)c3ccccc23)cc1 | 0.208 µM (active)
CCOC(=O)c1cnc2ccc(OCC)cc2c1N1CCN(c2ccccc2OC)CC1 | 1.19 µM (active)

Kindly give each listed record's EC50.
1. COc1cc(CN(C)CC2CCCN(CCc3ccccc3F)C2)cc(Cl)c1OC (stereo not drawn)
2. COc1ccc(C(=O)/C=C/C(=O)N(CC(=O)NC2CCCCC2)Cc2ccc(F)cc2)c(O)c1
3. O=C(c1ccc(-c2ccccc2)cc1)C1CCCN(Cc2ccncc2)C1 (stereo not drawn)

*A*
1: < 0.1 µM (active); 2: 1.61 µM (active); 3: 1.47 µM (active)

====

assayedTarget: Short transient receptor potential channel 4 (Mus musculus)
Sequence (Q9QUQ5 whole entry): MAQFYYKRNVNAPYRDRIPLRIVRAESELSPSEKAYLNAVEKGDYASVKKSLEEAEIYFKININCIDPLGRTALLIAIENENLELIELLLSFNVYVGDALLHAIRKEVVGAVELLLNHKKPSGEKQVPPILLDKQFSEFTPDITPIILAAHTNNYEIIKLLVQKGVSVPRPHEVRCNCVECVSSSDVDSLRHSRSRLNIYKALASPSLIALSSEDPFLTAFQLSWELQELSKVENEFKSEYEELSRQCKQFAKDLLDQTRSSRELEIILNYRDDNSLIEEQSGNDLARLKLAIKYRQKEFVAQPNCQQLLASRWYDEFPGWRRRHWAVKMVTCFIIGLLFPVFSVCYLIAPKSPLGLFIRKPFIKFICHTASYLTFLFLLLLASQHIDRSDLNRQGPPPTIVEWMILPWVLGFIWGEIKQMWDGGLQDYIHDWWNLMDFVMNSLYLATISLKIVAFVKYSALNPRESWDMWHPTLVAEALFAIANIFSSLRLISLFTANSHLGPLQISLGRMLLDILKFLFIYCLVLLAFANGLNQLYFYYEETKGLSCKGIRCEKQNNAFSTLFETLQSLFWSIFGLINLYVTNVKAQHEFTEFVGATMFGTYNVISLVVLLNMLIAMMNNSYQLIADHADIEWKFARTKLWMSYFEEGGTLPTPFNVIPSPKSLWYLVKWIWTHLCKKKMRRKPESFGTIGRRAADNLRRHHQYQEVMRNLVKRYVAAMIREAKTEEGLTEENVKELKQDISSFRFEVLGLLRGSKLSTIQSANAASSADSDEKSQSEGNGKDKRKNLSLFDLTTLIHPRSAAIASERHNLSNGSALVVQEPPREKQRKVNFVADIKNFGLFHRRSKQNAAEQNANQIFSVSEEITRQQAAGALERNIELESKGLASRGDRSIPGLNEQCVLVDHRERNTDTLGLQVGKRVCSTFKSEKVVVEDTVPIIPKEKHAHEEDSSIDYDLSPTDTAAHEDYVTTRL
experimentNotes: calcium entry via TRPC4 opening agents – cell-based, HEK293 TRPC4/mu-opioid, Fluo-4 calcium, dose response (AID 434937)
Type: functional
Calls of active or inactive are those of the source.
For each of the molecules below, state its EC50.

Guide cases for EC50, answers given:
molecule | result
CCn1c(=O)c(C(=O)NNC(=O)c2ccccc2F)c(O)c2ccccc21 | 6.68 µM (active)
CCOC(=O)C1(CCOc2ccccc2)CCN(Cc2ccc3c(c2)OCCO3)CC1 | 1.33 µM (active)
CN(C)C(CNC(=O)Nc1cccc(Cl)c1)c1cccnc1 (stereo not drawn) | 0.0267 µM (active)
Cc1c(C(=O)N(Cc2cccs2)C2CCS(=O)(=O)C2)oc2ccccc12 (stereo not drawn) | 2.11 µM (active)
CCCCN(CC)CC/N=c1/c(N2CCN(C(=O)OCC)CC2)c(O)c1=O | 1.68 µM (active)
Clc1cc(Cl)cc(C2=NC(Cc3ccccc3)CO2)c1 (stereo not drawn) | 5.31 µM (active)
COc1ccc(C(=O)NC(=S)NNC(=O)c2cccc(C)c2)cc1 | 3.35 µM (active)

Now examine the next entry.
*Q* # EC50 lookup, item CCN1CCN(Cc2cc(Br)cc(Br)c2O)CC1
*A* 0.0667 µM (active)
